biological target: Epidermal growth factor receptor (Homo sapiens, UniProt P00533)
Sequence (P00533 whole entry): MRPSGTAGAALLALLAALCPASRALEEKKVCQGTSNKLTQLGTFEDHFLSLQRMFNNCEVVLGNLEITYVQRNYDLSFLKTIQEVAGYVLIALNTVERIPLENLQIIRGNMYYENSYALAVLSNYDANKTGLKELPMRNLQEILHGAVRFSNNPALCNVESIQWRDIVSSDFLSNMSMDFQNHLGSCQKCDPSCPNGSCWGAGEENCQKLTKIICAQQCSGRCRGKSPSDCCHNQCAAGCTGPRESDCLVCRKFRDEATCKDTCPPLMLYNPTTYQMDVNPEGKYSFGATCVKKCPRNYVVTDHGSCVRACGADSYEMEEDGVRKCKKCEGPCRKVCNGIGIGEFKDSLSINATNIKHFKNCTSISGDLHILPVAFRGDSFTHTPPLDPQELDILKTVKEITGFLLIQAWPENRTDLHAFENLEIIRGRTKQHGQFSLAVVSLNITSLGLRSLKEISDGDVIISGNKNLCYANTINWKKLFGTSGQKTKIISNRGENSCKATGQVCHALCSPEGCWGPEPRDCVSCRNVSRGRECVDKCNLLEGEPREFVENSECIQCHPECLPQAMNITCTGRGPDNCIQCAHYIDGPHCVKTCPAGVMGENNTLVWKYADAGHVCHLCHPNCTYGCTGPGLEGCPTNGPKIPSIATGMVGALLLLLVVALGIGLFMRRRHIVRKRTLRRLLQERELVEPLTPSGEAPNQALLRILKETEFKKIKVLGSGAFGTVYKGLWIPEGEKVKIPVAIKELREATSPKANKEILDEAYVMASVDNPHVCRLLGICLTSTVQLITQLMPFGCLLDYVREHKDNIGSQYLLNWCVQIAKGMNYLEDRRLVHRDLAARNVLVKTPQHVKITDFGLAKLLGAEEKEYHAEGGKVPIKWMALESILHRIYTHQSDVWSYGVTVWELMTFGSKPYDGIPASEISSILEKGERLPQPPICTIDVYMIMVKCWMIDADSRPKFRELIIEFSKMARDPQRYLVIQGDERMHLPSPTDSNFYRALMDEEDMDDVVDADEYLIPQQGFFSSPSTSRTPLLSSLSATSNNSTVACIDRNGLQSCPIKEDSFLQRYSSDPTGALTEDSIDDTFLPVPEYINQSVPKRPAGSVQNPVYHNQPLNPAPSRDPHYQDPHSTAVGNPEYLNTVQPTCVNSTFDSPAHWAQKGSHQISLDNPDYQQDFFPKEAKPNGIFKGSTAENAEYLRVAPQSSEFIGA
reported-property: pKi
The read-out pKi is expressed as -log10 of concentration in moles per litre.

Below, each entry is followed by its recorded pKi result.
>>> test_value("Cc1nc2cnc(Nc3ccnc(-c4cnn(S(=O)(=O)C5CC5)c4)n3)cc2n1C(C)C")
7.26
>>> test_value("CC(C)n1nc(N2CC(CO)C2)c2cnc(Nc3ccnc(-c4cnn(S(=O)(=O)C5CC5)c4)n3)cc21")
8.70
>>> test_value("CC(C)n1cc(C(=O)NC2COC2)c2cnc(Nc3ccnc(-c4cnn(S(=O)(=O)C5CC5)c4)n3)cc21")
8.34

With those in mind, consider the next compound.
I would be grateful if you could share the reported pKi for Cc1nc2cnc(Nc3ccnc(-c4cnn(CC5CC5)c4)n3)cc2n1C(C)C .
5.92

###

molecular target: Epidermal growth factor receptor (Homo sapiens, UniProt P00533, 746-750DEL/T790M); experiment: Inhibition of human EGFR T790M/del (746 to 750 residues) mutant assessed as apparent inhibition constant using Fl-EEPLYWSFPAKKK-CONH2 peptide as substrate preincubated for 30 mins followed by addition of substrate and measured after 30 mins by Morrison plot analysis; conditions: read-out: Ki(app)
Items are presented alongside their recorded pKi.
On this scale, pKi is minus log10 of a concentration expressed in M (mol/L).

Some entries whose results are on file:
>>> test_value("CC(C)n1cc(C(=O)NC2CCOCC2)c2cnc(Nc3ccnc(-c4cnn(S(=O)(=O)C5CC5)c4)n3)cc21")
8.80
>>> test_value("Cc1nc2cnc(Nc3ccnc(-c4cnn(S(=O)(=O)C5CC5)c4)n3)cc2n1C(C)C")
8.74
>>> test_value("CC(C)n1cc(C(=O)NC2COC2)c2cnc(Nc3ccnc(-c4cnn(S(=O)(=O)C5CC5)c4)n3)cc21")
8.70
>>> test_value("CO[C@H]1CCN(c2nccc(Nc3cc4c(cn3)nc(C)n4C(C)C)n2)C[C@H]1F")
7.39
>>> test_value("CC(C)n1cc(C(N)=O)c2cnc(Nc3ccnc(-c4cnn(S(=O)(=O)C5CC5)c4)n3)cc21")
9.46
>>> test_value("Cc1nc2cnc(Nc3ccnc(-c4cnn(S(C)(=O)=O)c4)n3)cc2n1C(C)C")
8.46
>>> test_value("Cc1nc2cnc(Nc3ccnc(N4CC[C@H](O)[C@H](F)C4)n3)cc2n1C(C)C (racemic)")
7.37

Now consider a different compound.
Sample COC1CCN(c2nccc(Nc3cc4c(cn3)c(C(N)=O)cn4C(C)C)n2)CC1 — what was its pKi?
7.57

###

For reference, pIC50 measured on Epidermal growth factor receptor (Homo sapiens, UniProt P00533, 746-750DEL/T790M):
Units for pIC50: none; it is -log10 of a concentration expressed in mol/L.

Here's what some known entries look like.
>>> test_value("CC[C@@H](C)n1nc(N2CC(C(C)(C)O)C2)c2cnc(Nc3ccnc(-c4cnn(S(=O)(=O)C5CC5)c4)n3)cc21")
7.82
>>> test_value("CC(C)n1nc(N2CCOCC2)c2cnc(Nc3ccnc(-c4cnn(S(=O)(=O)C5CC5)c4)n3)cc21")
7.72
>>> test_value("CC(C)c1nn(C(C)C)c2cc(Nc3ccnc(-c4cnn(S(=O)(=O)C5CC5)c4)n3)ncc12")
6.04
>>> test_value("CC(C)n1nc(N2CC(CO)C2)c2cnc(Nc3ccnc(-c4cnn(S(=O)(=O)C5CC5)c4)n3)cc21")
8.09
>>> test_value("CC[C@H](C)n1nc(N2CC(C(C)(C)O)C2)c2cnc(Nc3ccnc(-c4cnn(S(=O)(=O)C5CC5)c4)n3)cc21")
8.10

Which value of pIC50 has been reported for CC(C)n1nc(N2CC(C(C)(C)O)C2)c2cnc(Nc3ccnc(-c4cnn(S(=O)(=O)C5CC5)c4)n3)cc21 in the records?
8.00

What do you have for CC(C)n1nc(N)c2cnc(Nc3ccnc(-c4cnn(S(=O)(=O)C5CC5)c4)n3)cc21 ?
7.85

###

test: Clearance in human hepatocyte; assay type: ADME, cell-based; settings: hepatocytes
reported-property: CLhep predicted (mL/min/kg)
Numeric only. Scale: mL/min/kg

>>> test_value("CC(C)n1nc(N2CC(C(C)(C)O)C2)c2cnc(Nc3ccnc(-c4cnn(S(=O)(=O)C5CC5)c4)n3)cc21")
7.1
>>> test_value("CC[C@@H](C)n1nc(N2CC(C(C)(C)O)C2)c2cnc(Nc3ccnc(-c4cnn(S(=O)(=O)C5CC5)c4)n3)cc21")
7.8
>>> test_value("Cc1nc2cnc(Nc3ccnc(-c4cnn(S(=O)(=O)C5CC5)c4)n3)cc2n1C(C)C")
4

Next item in the queue.
Param item = CC(C)n1nc(N2CCOCC2)c2cnc(Nc3ccnc(-c4cnn(S(=O)(=O)C5CC5)c4)n3)cc21 ; retrieve measured CLhep predicted.
6.7

###

system: NCI-H1975; assay: Antiproliferative activity against human NCI-H1975 cells harboring harboring EGFR L858R/T790M double mutant assessed as reduction in cell viability; assay type: functional, cell-based
reported-property: IC50
Write the numeric value and append its unit.

What IC50 value was documented for this compound, CC[C@H](C)n1nc(N2CC(C(C)(C)O)C2)c2cnc(Nc3ccnc(-c4cnn(S(=O)(=O)C5CC5)c4)n3)cc21 ?
361 nM

###

This document collects pIC50 values reported for Epidermal growth factor receptor (Homo sapiens, UniProt P00533, 746-750DEL).
Would you please state pIC50, meaning minus log10 of the concentration in mol/L, as a bare number?

# annotated cases, reported pIC50 shown
>>> test_value("CC[C@@H](C)n1nc(N2CC(C(C)(C)O)C2)c2cnc(Nc3ccnc(-c4cnn(S(=O)(=O)C5CC5)c4)n3)cc21")
7.24
>>> test_value("CC(C)c1nn(C(C)C)c2cc(Nc3ccnc(-c4cnn(S(=O)(=O)C5CC5)c4)n3)ncc12")
5.52
>>> test_value("CC[C@H](C)n1nc(N2CC(C(C)(C)O)C2)c2cnc(Nc3ccnc(-c4cnn(S(=O)(=O)C5CC5)c4)n3)cc21")
7.48

Moving on to another molecule below.
Lab request: please report pIC50 under test system Epidermal growth factor receptor (Homo sapiens, UniProt P00533, 746-750DEL) for CC(C)n1nc(N2CCOCC2)c2cnc(Nc3ccnc(-c4cnn(S(=O)(=O)C5CC5)c4)n3)cc21
7.12

###

assay: Clearance in human liver microsomes; assay type: ADME, Microsome
reported-property: CLhep predicted (mL/min/kg)
Only the number, expressed in mL/min/kg, is required.

Example entries and their recorded answers appear below.
>>> test_value("CC(C)n1nc(N)c2cnc(Nc3ccnc(-c4cnn(S(=O)(=O)C5CC5)c4)n3)cc21")
13
>>> test_value("CC(C)n1nc(N2CCOCC2)c2cnc(Nc3ccnc(-c4cnn(S(=O)(=O)C5CC5)c4)n3)cc21")
9.3
>>> test_value("CC(C)n1nc(N2CCC(O)CC2)c2cnc(Nc3ccnc(-c4cnn(S(=O)(=O)C5CC5)c4)n3)cc21")
7
>>> test_value("Cc1nc2cnc(Nc3ccnc(N4CC[C@H](O)[C@H](F)C4)n3)cc2n1C(C)C (racemic)")
5.2
>>> test_value("CC[C@@H](C)n1nc(N2CC(C(C)(C)O)C2)c2cnc(Nc3ccnc(-c4cnn(S(=O)(=O)C5CC5)c4)n3)cc21")
9.9

What measured CLhep predicted goes with CC[C@H](C)n1nc(N2CC(C(C)(C)O)C2)c2cnc(Nc3ccnc(-c4cnn(S(=O)(=O)C5CC5)c4)n3)cc21 ?
3.8

Proceed to CC(C)c1nn(C(C)C)c2cc(Nc3ccnc(-c4cnn(S(=O)(=O)C5CC5)c4)n3)ncc12
8.5

// query: Cc1nc2cnc(Nc3ccnc(-c4cnn(S(=O)(=O)C5CC5)c4)n3)cc2n1C(C)C
7.7

What would you report for CC(C)n1nc(N2CC(C(C)(C)O)C2)c2cnc(Nc3ccnc(-c4cnn(S(=O)(=O)C5CC5)c4)n3)cc21 ?
8.9

Consider next the molecule CC(C)n1nc(N2CC(CO)C2)c2cnc(Nc3ccnc(-c4cnn(S(=O)(=O)C5CC5)c4)n3)cc21 in the same way.
10

###

target: Epidermal growth factor receptor (Homo sapiens, UniProt P00533, 746-750DEL); experiment: Inhibition of human EGFR del (746 to 750) mutant assessed as apparent inhibition constant using Fl-EEPLYWSFPAKKK-CONH2 as substrate preincubated for 30 mins followed by addition of substrate and measured after 30 mins by Morrison plot analysis; conditions: read-out: Ki(app)
reported-property: pKi
# pKi is unitless: minus log10 of the molar concentration; print number only

Below are worked cases with known answers.
>>> test_value("Cc1nc2cnc(Nc3ccnc(N4CC[C@H](O)[C@H](F)C4)n3)cc2n1C(C)C (racemic)")
5.89
>>> test_value("CO[C@H]1CCN(c2nccc(Nc3cc4c(cn3)nc(C)n4C(C)C)n2)C[C@H]1F")
5.74
>>> test_value("Cc1nc2cnc(Nc3ccnc(-c4cnn(S(=O)(=O)C5CC5)c4)n3)cc2n1C(C)C")
7.92

Reported pKi for Epidermal growth factor receptor (Homo sapiens, UniProt P00533, 746-750DEL), given CC(C)n1cc(C(N)=O)c2cnc(Nc3ccnc(-c4cnn(S(=O)(=O)C5CC5)c4)n3)cc21 ?
8.92

Could you do the same for CC(C)n1cc(C(=O)NC2COC2)c2cnc(Nc3ccnc(-c4cnn(S(=O)(=O)C5CC5)c4)n3)cc21 , please?
8.70

Same again, this time with COC1CCN(c2nccc(Nc3cc4c(cn3)c(C(N)=O)cn4C(C)C)n2)CC1
6.49

What do you have for CC(C)n1cc(C(=O)NC2CCOCC2)c2cnc(Nc3ccnc(-c4cnn(S(=O)(=O)C5CC5)c4)n3)cc21 ?
8.85

Continue with Cc1nc2cnc(Nc3ccnc(-c4cnn(S(C)(=O)=O)c4)n3)cc2n1C(C)C
7.42
